System: PLC-PRF-5
Test: Cytotoxicity against human PLC/PRF/5 cells assessed as growth inhibition after 24 hrs by MTT assay
Assay type: functional, cell-based
Conditions: PLC-PRF-5, 24 h
assay-endpoint: IC50 (µM)

compound="CNC(=O)c1cc(Oc2ccc(NC(=O)Nc3ccc(Cl)c(C(F)(F)F)c3)cc2)ccn1 [SORAFENIB]" assay_endpoint=IC50 readout_units=µM assay_result=29.9
compound=COc1cc(NC(=O)c2ccc(Cl)cc2)c2cc1Oc1ccc(cc1)C[C@H]1c3cc(c(OC)cc3CCN1C)Oc1c(OC)c(OC)cc3c1[C@H](C2)N(C)CC3 assay_endpoint=IC50 readout_units=µM assay_result=11.9
compound=C=CC(=O)Nc1cc(OC)c2cc1C[C@H]1c3c(cc(OC)c(OC)c3Oc3cc4c(cc3OC)CCN(C)[C@H]4Cc3ccc(cc3)O2)CCN1C assay_endpoint=IC50 readout_units=µM assay_result=10.7
compound=COc1cc(NC(=O)C2CC=CC2)c2cc1Oc1ccc(cc1)C[C@H]1c3cc(c(OC)cc3CCN1C)Oc1c(OC)c(OC)cc3c1[C@H](C2)N(C)CC3 assay_endpoint=IC50 readout_units=µM assay_result=6.42
